Quick record: pIC50, EGFR (human) (UniProt P00533).
Numbers only, as −log10 of the molar value.

Answered cases to consult:
[
  {
    "smiles notation": "COc1cc2nc(Cl)nc(Nc3ccc(S(=O)(=O)Nc4cc(C)on4)cc3)c2cc1OC",
    "system": "EGFR (human) (UniProt P00533)",
    "recorded measurement": 8.70
  },
  {
    "smiles notation": "CCOc1ccc2nc(C)cc(Nc3cccc(O)c3)c2c1",
    "system": "EGFR (human) (UniProt P00533)",
    "recorded measurement": 8.55
  }
]

# per-item lookup of pIC50; items listed below
1. CCOc1ccc2nc(C)cc(Nc3ccc(S(=O)(=O)NC(=N)N)cc3)c2c1
2. CCOc1ccc2nc(C)cc(Nc3cc(OC)c(OC)cc3C(=O)OC)c2c1

Output:
1. 7.72
2. 8.78
